- Test system: MLK2
- Condition summary: concentration: 1 μM, replicates: in singlicate; n = 1;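 further: KINOMEscan kinase panel screen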
Measured attribute: %Inh (%)

>>> experimental_result("Cl.Fc1ccccc1COc1ccc(Nc2ncnc3ccc(-c4nnc(C(F)(F)F)o4)cc23)cc1Cl [GW424170]")
0
>>> experimental_result("COc1ccc(-c2oc3ncnc(N)c3c2-c2ccc(OC)cc2)cc1 [SB-589132]")
0
>>> experimental_result("Cc1cc(N2CCC(NS(=O)(=O)c3ccc(F)cc3)CC2)nc(Nc2cccc(C#N)c2)n1.O=C(O)C(F)(F)F [GSK1653537]")
0
>>> experimental_result("CCCc1ccc(S(=O)(=O)NC2CCN(c3ccnc(Nc4ccc(OC)cc4)n3)C2)cc1 (centres unmarked) [GSK1379737]")
0
>>> experimental_result("O=C(Nc1n[nH]c2nc(-c3ccco3)c(Br)cc12)c1ccc(CN2CCCC2)cc1.O=C(O)[C@H](O)[C@@H](O)C(=O)O [SB-742352]")
0
>>> experimental_result("O=C(c1ccc(-c2cc(-c3c[nH]nc3-c3ccccn3)ccn2)cc1)N1CCCC1 [GW792479]")
14
>>> experimental_result("COc1cc2c(Nc3cccc(NC(=O)c4ccccc4)c3)ncnc2cc1OCCCN1CCOCC1 [GSK223810]")
23
>>> experimental_result("CCn1c(-c2ccncc2)nc2cnccc21 [SB-735216]")
0

----------
- System: LCK
- Condition summary: concentration: 1 μM, replicates: in singlicate; n = 1
Measured attribute: %Inh

>>> experimental_result("Fc1cccc(COc2ccc(Nc3ncnc4sc(-c5ccc[nH]5)cc34)cc2Cl)c1")
"8%"
>>> experimental_result("C[C@@H]1CCN(C(=O)CO)C[C@@H]1N(C)c1ncnc2[nH]ccc12")
"20%"
>>> experimental_result("COc1cc2ncnc(Nc3ccc(OCc4ccccc4Br)c(Cl)c3)c2cc1OC.Cl")
"57%"
>>> experimental_result("Nc1n[nH]c2nnc(-c3ccccc3)cc12")
"0%"
>>> experimental_result("COc1ccc(-c2oc3ncnc(N)c3c2-c2ccc(OC)cc2)cc1")
"54%"
>>> experimental_result("COc1ccc(Nc2nccc(N3CCC(NC(=O)Nc4ccc5c(c4)OCO5)C3)n2)cc1 (stereo not drawn)")
"24%"
>>> experimental_result("N#Cc1ccc(Oc2ccc(Nc3ncnc4cc[nH]c34)cc2Cl)cc1")
"0%"
>>> experimental_result("O=C(c1ccc(-c2cc(-c3c[nH]nc3-c3ccccn3)ccn2)cc1)N1CCCC1")
"3%"
>>> experimental_result("Cn1ccc2ncnc(Nc3ccc(Oc4cccc(Cl)c4)c(Cl)c3)c21")
"0%"

----------
A collection of compounds and their measured %Inh
- System: ABL2
- Condition summary: concentration: 1 μM, replicates: in singlicate; n = 1
Measured attribute: %Inh

>>> experimental_result("Clc1cccc(-c2nc(Nc3ccncc3)c3ccccc3n2)c1")
"28%"
>>> experimental_result("Cl.Cl.c1ccc(-c2cc3ccncc3cc2OC2CCNCC2)cc1")
"8%"
>>> experimental_result("COc1ccc(Nc2nccc(N3CCC(NC(=O)Nc4ccc5c(c4)OCO5)C3)n2)cc1 (stereo not drawn)")
"18%"
>>> experimental_result("CC(C)(C)c1ccc(-n2cnc3c(N)ncnc32)cc1")
"7%"
>>> experimental_result("Cc1ccc(O)cc1Nc1cc(C(F)(F)F)nc2ccc(-c3ccncc3)cc12")
"14%"
>>> experimental_result("Cc1cccc(-c2nc(Nc3ccc4[nH]nnc4c3)c3ccccc3n2)n1")
"0%"
>>> experimental_result("O=C(Nc1ccccc1F)NC1CCN(c2ccnc(Nc3ccc(F)cc3)n2)C1 (stereo not drawn)")
"9%"
>>> experimental_result("Nc1nc(-c2ccccn2)c(-c2ccnc3ccccc23)s1")
"14%"
>>> experimental_result("CNc1nccc(-c2c(-c3ccc(F)cc3)ncn2C2CCN(C)CC2)n1")
"0%"
>>> experimental_result("OCCOCCn1ccc2ncnc(Nc3ccc(Oc4cccc(Cl)c4)c(Cl)c3)c21")
"0%"
>>> experimental_result("Nc1nc(-c2ccc3c(N)n[nH]c3c2)cc(N2CCCCC2)n1")
"12%"
>>> experimental_result("Nc1nc(-c2cccnc2)c(-c2ccnc3ccccc23)s1")
"12%"
>>> experimental_result("Fc1ccc(Nc2nccc(-c3c(-c4ccc(Cl)cc4)nn4ncccc34)n2)cc1F")
"19%"
>>> experimental_result("C[C@@H]1CCN(C(=O)CO)C[C@@H]1N(C)c1ncnc2[nH]ccc12")
"0%"
>>> experimental_result("CCc1nc(-c2cccc(N(C)S(=O)(=O)c3ccccc3)c2)c(-c2ccnc(Nc3ccc(N4CCN(C(C)=O)CC4)nc3)n2)s1")
"23%"
>>> experimental_result("Cc1ccc(NC(=O)c2cccc(C#N)c2)cc1-c1ccc(C(=O)Nc2ccncc2)cc1")
"54%"
>>> experimental_result("CC(C)(C)OC(=O)NC1CCCN(c2cc(-c3ccc4c(N)n[nH]c4c3)nc(N)n2)C1 (stereo not drawn)")
"6%"
>>> experimental_result("Clc1cc(Nc2ncnc3cc[nH]c23)ccc1OCc1ccccn1")
"0%"
>>> experimental_result("COc1ccc(Nc2nccc(N3CCC(NC(=O)c4cccc(NC(C)=O)c4)C3)n2)cc1 (stereo not drawn)")
"0%"
>>> experimental_result("COC(=O)c1cccc(NC(=O)NCCNc2ccnc(Nc3ccc(F)cc3)n2)c1")
"1%"
>>> experimental_result("CN1c2ccc(-c3ccc(C(=O)NCCO)cc3)cc2-c2[nH]ncc2S1(=O)=O")
"7%"
>>> experimental_result("COc1ccc(-c2oc3ncnc(N)c3c2-c2ccc(OC)cc2)cc1")
"20%"
>>> experimental_result("CSc1nn2c(=O)cc(N3CCOCC3)nc2n1Cc1cccc(Cl)c1Cl")
"14%"
>>> experimental_result("FC(F)(F)c1ccc(-c2nn3ncccc3c2-c2ccnc(Nc3cccc(C(F)(F)F)c3)n2)cc1")
"16%"
>>> experimental_result("Nc1n[nH]c2nnc(-c3ccccc3)cc12")
"13%"
>>> experimental_result("C[C@H]1CC[C@@H](C(=O)Nc2ccccc2)CN1c1cc(-c2ccc3c(N)n[nH]c3c2)nc(N)n1")
"15%"
>>> experimental_result("CS(=O)(=O)CCNCc1nc(-c2ccc3ncnc(Nc4ccc(OCc5cccc(F)c5)c(Cl)c4)c3c2)cs1.Cl")
"0%"
>>> experimental_result("NC(=O)c1sc(-n2cnc3ccccc32)cc1OCc1ccccc1F")
"8%"
>>> experimental_result("c1ccc(-c2ccc3c(-c4ccnc(Nc5ccc6c(c5)OCCO6)n4)cnn3n2)cc1")
"12%"
>>> experimental_result("Fc1cccc(COc2ccc(Nc3ncnc4cc[nH]c34)cc2Cl)c1")
"10%"
>>> experimental_result("O=C(NCCCN1CCCC1=O)c1cnc(NCc2cc(Cl)ccc2Cl)nc1NC1CCNCC1")
"0%"
>>> experimental_result("FC(F)(F)c1ccc(-c2cc(-c3c[nH]nc3-c3ccccn3)ccn2)cc1")
"16%"
>>> experimental_result("CC(C)N1CCC(n2cnc(-c3ccc(F)cc3)c2-c2ccnc(N)n2)CC1")
"0%"
>>> experimental_result("CCc1nc(-c2cccc(C)c2)c(-c2ccnc(NC(=O)c3ccccc3)c2)s1")
"27%"
>>> experimental_result("CCCc1ccc(S(=O)(=O)NC2CCN(c3ccnc(Nc4ccc(OC)cc4)n3)C2)cc1 (stereo not drawn)")
"14%"
>>> experimental_result("CNc1nccc(-c2c(-c3ccc(F)cc3)ncn2CCCN2CCOCC2)n1")
"12%"

----------
- Test system: ADCK3
- Construct: gene CABC1
- Condition summary: concentration: 1 μM, replicates: in singlicate; n = 1
Decide by %Inh: equal to or exceeding 8% means Fulfilled, less means Not fulfilled.

>>> class_name("CCc1nc(-c2cccc(C)c2)c(-c2ccnc(NC(=O)c3ccccc3)c2)s1")
"Fulfilled"
>>> class_name("Clc1cc(Nc2ncnc3cc[nH]c23)ccc1OCc1ccccn1")
"Fulfilled"
>>> class_name("O=C(c1ccc(-c2cc(-c3c[nH]nc3-c3ccccn3)ccn2)cc1)N1CCCC1 [GW792479]")
"Fulfilled"
>>> class_name("COc1ccc(NC(=O)Nc2ccc(C)c(-c3ccc(C(=O)Nc4ccncc4)cc3)c2)cc1 [GSK1398475]")
"Fulfilled"
>>> class_name("Clc1ccc(-c2cc(-c3c[nH]nc3-c3ccccn3)ccn2)cc1 [GW681251]")
"Fulfilled"
>>> class_name("O=C(Nc1n[nH]c2nc(-c3ccco3)c(Br)cc12)c1ccc(CN2CCCC2)cc1.O=C(O)[C@H](O)[C@@H](O)C(=O)O [SB-742352]")
"Not fulfilled"
>>> class_name("Nc1n[nH]c2nnc(-c3ccccc3)cc12 [SB-517389]")
"Not fulfilled"
>>> class_name("COc1cc2ncnc(Nc3ccc(OCc4ccccc4Br)c(Cl)c3)c2cc1OC.Cl [GI261590]")
"Fulfilled"
>>> class_name("CC(=O)Nc1n[nH]c2ncc(-c3ccccc3)cc12 [SB-548492]")
"Not fulfilled"
>>> class_name("O=c1cc(N2CCOCC2)nc2n(Cc3cccc(Cl)c3)ccn12 [GSK2296823]")
"Fulfilled"
>>> class_name("CS(=O)(=O)CCNCc1nc(-c2ccc3ncnc(Nc4ccc(OCc5cccc(F)c5)c(Cl)c4)c3c2)cs1.Cl [GW583340]")
"Not fulfilled"
>>> class_name("Nc1nc(-c2ccc3c(N)n[nH]c3c2)cc(N2CCCCC2)n1 [GSK2228768]")
"Not fulfilled"
>>> class_name("Nc1nccc2scc(-c3ccc4c(c3)CCN4C(=O)Cc3cc(F)ccc3F)c12 [GSK2587663]")
"Fulfilled"
>>> class_name("C[C@@H]1CCN(C(=O)CO)C[C@@H]1N(C)c1ncnc2[nH]ccc12")
"Not fulfilled"
>>> class_name("Cn1ccc2ncnc(Oc3ccc(NC(=O)Nc4cccnc4)c(Cl)c3)c21")
"Not fulfilled"
>>> class_name("COc1cc2c(Nc3cccc(NC(=O)c4ccccc4)c3)ncnc2cc1OCCCN1CCOCC1 [GSK223810]")
"Fulfilled"
>>> class_name("Nc1nc(-c2ccc3c(N)n[nH]c3c2)cc(N2CCC[C@@H](C(=O)Nc3ccccc3)C2)n1.O=C(O)C(F)(F)F.O=C(O)C(F)(F)F [GSK2288359]")
"Not fulfilled"
>>> class_name("O=C(NCCCN1CCCC1=O)c1cnc(NCc2cc(Cl)ccc2Cl)nc1NC1CCNCC1")
"Fulfilled"
>>> class_name("Cl.Cn1ccc(-c2cccc(Nc3ccnc4cc(-c5nccs5)ccc34)c2)n1 [GW525701]")
"Not fulfilled"
>>> class_name("c1ccc(-c2ccc3c(-c4ccnc(Nc5ccc6c(c5)OCCO6)n4)cnn3n2)cc1 [GW818941]")
"Not fulfilled"
>>> class_name("CC(C)(C)c1ccc(-n2cnc3c(N)ncnc32)cc1 [SKF-97263]")
"Fulfilled"
>>> class_name("CSc1nn2c(=O)cc(N3CCOCC3)nc2n1Cc1cccc(Cl)c1Cl [GSK2347225]")
"Fulfilled"
>>> class_name("Nc1nc(-c2cccnc2)c(-c2ccnc3ccccc23)s1 [GW684083]")
"Fulfilled"
>>> class_name("COc1ccc(Nc2nccc(N3CCC(NC(=O)Nc4ccc5c(c4)OCO5)C3)n2)cc1 (stereo not drawn) [GSK1379745]")
"Fulfilled"
>>> class_name("CNc1nccc(-c2c(-c3ccc(F)cc3)ncn2C2CCN(C)CC2)n1 [SB-222903]")
"Not fulfilled"
>>> class_name("N#Cc1ccc(Oc2ccc(Nc3ncnc4cc[nH]c34)cc2Cl)cc1")
"Fulfilled"
>>> class_name("Cl.c1ccc(Cn2ncc3cc(Nc4ncnc5ccccc45)ccc32)cc1 [GW273749]")
"Not fulfilled"
>>> class_name("Cl.Fc1ccccc1COc1ccc(Nc2ncnc3ccc(-c4nnc(C(F)(F)F)o4)cc23)cc1Cl [GW424170]")
"Not fulfilled"
>>> class_name("CCC(CC)(CC)n1cnc2c(N)ncnc21 [SKF-97620]")
"Not fulfilled"
>>> class_name("Cc1cccc(-c2nc(Nc3ccc4[nH]nnc4c3)c3ccccc3n2)n1 [GW867587]")
"Not fulfilled"
>>> class_name("Fc1ccc(-c2ncn(CCCNCc3ccccc3)c2-c2ccncc2)cc1")
"Not fulfilled"
>>> class_name("CCCc1ccc(S(=O)(=O)NC2CCN(c3ccnc(Nc4ccc(OC)cc4)n3)C2)cc1 (stereo not drawn) [GSK1379737]")
"Not fulfilled"
>>> class_name("CN1CCC(n2cnc(-c3ccc(F)cc3)c2-c2ccnc(NC3CCNCC3)n2)CC1 [SB-229482]")
"Fulfilled"
>>> class_name("CC(C)N1CCC(n2cnc(-c3ccc(F)cc3)c2-c2ccnc(N)n2)CC1 [SB-223132]")
"Fulfilled"
